# Tested on: ryegrass, Italian (Italian ryegrass, Lolium multiflorum)
# procedure details: Test A postemergence
# Type: in vivo
# condition label: Lolium multiflorum, post-emergence, 240 h, 125 g ai/ha, Postemergence; visual injury after approximately 10 d; 0 to 100 scale where 0 is no effect and 100 is complete control; read-out: Plant response rating, Ryegrass, Italian
# Excerpt: […]
measured parameter: pest or weed control at 125 g/ha
The reply should read as a number followed by its unit.

// solved cases for pest or weed control at 125 g/ha follow
compound="CN1C[C@H](c2cc(F)cc(F)c2)[C@@H](C(=O)Nc2ccc(C(F)(F)F)cc2)C1=O [Compound 968]" result_value=0%
compound="CN1CC[C@H](c2ccccc2C(F)(F)F)[C@@H](C(=O)Nc2ccc(F)c(F)c2F)C1=O [Compound 1010]" result_value=0%
compound="COc1c(F)ccc([C@H]2CNC(=O)[C@@H]2C(=O)Nc2ccccc2S(C)(=O)=O)c1Cl [Compound 916]" result_value=0%
compound="COc1ccc([C@H]2CN(C)C(=O)[C@@H]2C(=O)Nc2ccccc2SC)cc1C(F)(F)F [Compound 991]" result_value=0%
compound="CCOc1cccc([C@H]2CN(C)C(=O)[C@@H]2C(=O)Nc2cccc(F)c2F)c1 [Compound 956]" result_value=50%
compound="O=C(Nc1cccc(Cl)c1F)[C@H]1C(=O)N(C2CC2)CC[C@@H]1c1cccc(C(F)(F)F)c1 [Compound 926]" result_value=0%

Value of pest or weed control at 125 g/ha reported for the compound Cc1cc([C@H]2CN(C)C(=O)[C@@H]2C(=O)Nc2ccccc2S(C)(=O)=O)ccc1Cl [Compound 944] is 30%

Value of pest or weed control at 125 g/ha reported for the compound CC(C)COc1cccc([C@H]2CNC(=O)[C@@H]2C(=O)Nc2cccc(F)c2F)c1 [Compound 965] is 0%

Value of pest or weed control at 125 g/ha reported for the compound Cc1cc([C@H]2CN(C)C(=O)[C@@H]2C(=O)Nc2cccc(F)c2F)cc(C)c1Br [Compound 1024] is 30%

Value of pest or weed control at 125 g/ha reported for the compound O=C1NC[C@H](c2cc(C(F)(F)F)ccn2)[C@H]1C(=O)Nc1ccccc1F [Compound 948] is 0%

Where do these numbers come from? They come from patent US12077503B2.
